target_of_assay: T1, SOCS-3 (recombinant, His-tagged) (mouse, UniProt O35718)
T1 chain: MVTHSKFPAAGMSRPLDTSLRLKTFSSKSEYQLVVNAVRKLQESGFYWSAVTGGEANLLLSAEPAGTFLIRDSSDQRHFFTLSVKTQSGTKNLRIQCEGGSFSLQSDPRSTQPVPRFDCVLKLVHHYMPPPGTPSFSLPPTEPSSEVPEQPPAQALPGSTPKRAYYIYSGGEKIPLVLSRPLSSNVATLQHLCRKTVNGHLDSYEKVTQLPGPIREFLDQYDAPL
procedure_summary: competition, SPR
Square brackets hold non-standard residues; d marks the D form. Ends that are not written are not given here. pY = N[C@@H](Cc1ccc(OP(=O)(O)O)cc1)C(=O)O
# t = IC50 below 600 nM (exclusive); f = IC50 at/above 600 nM

binder | class_label
STASTVE[pY]STVAHSG-NH2 (N-terminus assumed; SMILES CC(C)[C@H](NC(=O)[C@@H](NC(=O)[C@H](CO)NC(=O)[C@H](Cc1ccc(OP(=O)(O)O)cc1)NC(=O)[C@H](CCC(=O)O)NC(=O)[C@@H](NC(=O)[C@@H](NC(=O)[C@H](CO)NC(=O)[C@H](C)NC(=O)[C@@H](NC(=O)[C@@H](N)CO)[C@@H](C)O)[C@@H](C)O)C(C)C)[C@@H](C)O)C(=O)N[C@@H](C)C(=O)N[C@@H](Cc1c[nH]cn1)C(=O)N[C@@H](CO)C(=O)NCC(N)=O) [gp130 phosphopeptide V12A] | f
Ac-TVE[pY]STVVHSG-NH2 (SMILES CC(=O)N[C@H](C(=O)N[C@H](C(=O)N[C@@H](CCC(=O)O)C(=O)N[C@@H](Cc1ccc(OP(=O)(O)O)cc1)C(=O)N[C@@H](CO)C(=O)N[C@H](C(=O)N[C@H](C(=O)N[C@H](C(=O)N[C@@H](Cc1c[nH]cn1)C(=O)N[C@@H](CO)C(=O)NCC(N)=O)C(C)C)C(C)C)[C@@H](C)O)C(C)C)[C@@H](C)O) [AcTVE(pY)STVVHSG] | t
STASTVE[pY]STAVHSG-NH2 (N-terminus assumed; SMILES CC(C)[C@H](NC(=O)[C@H](C)NC(=O)[C@@H](NC(=O)[C@H](CO)NC(=O)[C@H](Cc1ccc(OP(=O)(O)O)cc1)NC(=O)[C@H](CCC(=O)O)NC(=O)[C@@H](NC(=O)[C@@H](NC(=O)[C@H](CO)NC(=O)[C@H](C)NC(=O)[C@@H](NC(=O)[C@@H](N)CO)[C@@H](C)O)[C@@H](C)O)C(C)C)[C@@H](C)O)C(=O)N[C@@H](Cc1c[nH]cn1)C(=O)N[C@@H](CO)C(=O)NCC(N)=O) [gp130 phosphopeptide V11A] | f

For STASTVE[pY]STVVH-NH2 (N-terminus assumed; SMILES CC(C)[C@H](NC(=O)[C@@H](NC(=O)[C@@H](NC(=O)[C@H](CO)NC(=O)[C@H](Cc1ccc(OP(=O)(O)O)cc1)NC(=O)[C@H](CCC(=O)O)NC(=O)[C@@H](NC(=O)[C@@H](NC(=O)[C@H](CO)NC(=O)[C@H](C)NC(=O)[C@@H](NC(=O)[C@@H](N)CO)[C@@H](C)O)[C@@H](C)O)C(C)C)[C@@H](C)O)C(C)C)C(=O)N[C@@H](Cc1c[nH]cn1)C(N)=O) [STASTVE(pY)STVVH] , is the recorded IC50 below the cut-off of 600 nM? t

For Ac-VA[pY]STVVHSG-NH2 (SMILES CC(=O)N[C@H](C(=O)N[C@@H](C)C(=O)N[C@@H](Cc1ccc(OP(=O)(O)O)cc1)C(=O)N[C@@H](CO)C(=O)N[C@H](C(=O)N[C@H](C(=O)N[C@H](C(=O)N[C@@H](Cc1c[nH]cn1)C(=O)N[C@@H](CO)C(=O)NCC(N)=O)C(C)C)C(C)C)[C@@H](C)O)C(C)C) [AcVA(pY)STVVHSG] , is the recorded IC50 below the cut-off of 600 nM? t
